All figures here come from patent US10336702B2.

Measured on: Akt3 (Homo sapiens)
Construct: unspecified tag, removed (detagged) (cleaved yes); purchased SignalChem and Proteros (Akt3); Merck Millipore (PDK1) 14-452 (PDK1); none given for Akt3
Sequence (Q9Y243 whole entry): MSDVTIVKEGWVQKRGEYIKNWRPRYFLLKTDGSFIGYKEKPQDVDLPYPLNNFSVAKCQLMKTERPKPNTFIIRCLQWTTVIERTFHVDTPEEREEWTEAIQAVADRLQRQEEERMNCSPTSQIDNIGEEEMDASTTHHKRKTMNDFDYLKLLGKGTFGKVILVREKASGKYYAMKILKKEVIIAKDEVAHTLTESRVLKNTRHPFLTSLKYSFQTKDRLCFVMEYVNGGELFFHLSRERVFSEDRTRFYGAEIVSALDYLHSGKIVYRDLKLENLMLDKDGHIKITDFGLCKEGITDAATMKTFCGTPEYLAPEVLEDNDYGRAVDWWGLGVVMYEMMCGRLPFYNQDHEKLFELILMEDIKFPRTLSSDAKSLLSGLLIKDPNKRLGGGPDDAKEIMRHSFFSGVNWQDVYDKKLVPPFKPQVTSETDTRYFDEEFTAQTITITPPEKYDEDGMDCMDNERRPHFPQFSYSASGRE
Method notes: Akt activation assay (PDK1-mediated activation, LANCE Ultra crosstide TR-FRET), Akt3
Format: biochemical
Run parameters: read-out: Biological Assay 1 IC50 (nM) Akt3
Experimental: Biological Assay 1: Akt Activation Assay Addition of a Europium-labelled antibody specific to the phosphopeptide allows energy transfer from the Europium donor to the Ultra Ulight™ acceptor if close enough in proximity. […] 5 μL enzyme in 1×AB was incubated with 2.5 μL test compound. […] Plates read with the EnVision® Multilabel Plate Reader, excitation at 320 nm and emission at 665 nm and 615 nm. Compound IC50 was determined using a 4-parameter equation.
Property name: IC50 (nM)

Smiles data	Property name	Measured number
NC1(c2ccc(-c3ncc(NC(=O)C[C@H]4CC[C@H](N5CCCC5=O)CC4)cc3-c3ccsc3)cc2)CCC1	IC50	240
COC(=O)N(C(C)C)[C@H]1CC[C@H](CC(=O)Nc2cnc(-c3ccc([C@]4(N)C[C@](C)(O)C4)cc3)c(-c3ccccc3)c2)CC1	IC50	7
CCC(=O)N(C)[C@H]1CC[C@H](CC(=O)Nc2cc(-c3ccsc3)c(-c3ccc([C@]4(N)C[C@H](F)C4)cc3)nn2)CC1	IC50	26
CC(=O)N[C@H]1CC[C@H](CC(=O)Nc2cnc(-c3ccc(C4(N)CCC4)cc3)c(-c3ccsc3C)c2)CC1	IC50	1300
CC(=O)N(C(C)C)[C@H]1CC[C@H](CC(=O)Nc2cnc(-c3ccc(C(C)(C)N)cc3)c(-c3ccccc3)c2)CC1	IC50	1800
COC(=O)N(C)[C@H]1CC[C@H](CC(=O)Nc2cc(-c3ccccc3)c(-c3ccc([C@]4(N)C[C@](C)(O)C4)cc3)cn2)CC1	IC50	8
CCC(=O)N(C)[C@H]1CC[C@H](CC(=O)Nc2cc(-c3ccccc3)c(-c3ccc([C@]4(N)C[C@](C)(O)C4)c(F)c3)nn2)CC1	IC50	31
NC1(c2ccc(-c3cnc(NC(=O)C[C@H]4CC[C@H](N5CCCC5=O)CC4)cc3-c3ccccc3)cc2)CC1	IC50	33
CN(C(=O)C1CC1)[C@H]1CC[C@H](CC(=O)Nc2cnc(-c3ccc(C(C)(C)N)cc3)c(-c3ccsc3)c2)CC1	IC50	680
CC(=O)N(C)[C@H]1CC[C@H](CC(=O)Nc2cnc(-c3ccc([C@]4(N)C[C@](C)(O)C4)cc3)c(-c3ccccc3)c2)CC1	IC50	15

(A) CC(C)(N)c1ccc(-c2ncc(NC(=O)C[C@H]3CC[C@H](N4CCOCC4)CC3)cc2-c2ccccc2)cc1
(B) NC1(c2ccc(-c3ncc(NC(=O)C[C@H]4CC[C@H](N5CCOC5=O)CC4)cc3-c3ccccc3)cc2)CC(F)(F)C1
Which record shows the lower IC50: the first, A , or the second, B ? Selection: enter the item's label.
B
(B: 150 nM, A: 6300 nM)

(A) CCOC(=O)N(C)[C@H]1CC[C@H](CC(=O)Nc2cc(-c3ccsc3)c(-c3ccc([C@]4(N)C[C@](C)(O)C4)cc3)cn2)CC1
(B) CC(=O)N[C@H]1CC[C@H](CC(=O)Nc2cnc(-c3ccc([C@H](N)C(F)F)cc3)c(-c3ccccc3)c2)CC1
(C) CC(=O)N(C)[C@H]1CC[C@H](CC(=O)Nc2cc(-c3ccccc3F)c(-c3ccc(C4(N)CCC4)cc3)cn2)CC1
(D) CN(C(=O)C1CC1)[C@H]1CC[C@H](CC(=O)Nc2cc(-c3ccccc3)c(-c3ccc([C@]4(N)C[C@](C)(O)C4)cc3)nn2)CC1
Ascending by IC50, please: list the compounds accordingly. Please write the labels in the order that was asked for.
D, A, C, B
(D: 4 nM, A: 15 nM, C: 57 nM, B: 4500 nM)

(1) CN(C(=O)C1CCC1)[C@H]1CC[C@H](CC(=O)Nc2cc(-c3ccccc3)c(-c3ccc([C@]4(N)C[C@](C)(O)C4)cc3)cn2)CC1
(2) NC1(c2ccc(-c3ncc(NC(=O)C[C@H]4CC[C@H](NC(=O)C(F)F)CC4)cc3-c3ccccc3)cc2)CCC1
Which record shows the lower IC50: the first, 1 , or the second, 2 ? Selection: enter the item's label.
1
(1: 13 nM, 2: 20 nM)
